Sequence of the target: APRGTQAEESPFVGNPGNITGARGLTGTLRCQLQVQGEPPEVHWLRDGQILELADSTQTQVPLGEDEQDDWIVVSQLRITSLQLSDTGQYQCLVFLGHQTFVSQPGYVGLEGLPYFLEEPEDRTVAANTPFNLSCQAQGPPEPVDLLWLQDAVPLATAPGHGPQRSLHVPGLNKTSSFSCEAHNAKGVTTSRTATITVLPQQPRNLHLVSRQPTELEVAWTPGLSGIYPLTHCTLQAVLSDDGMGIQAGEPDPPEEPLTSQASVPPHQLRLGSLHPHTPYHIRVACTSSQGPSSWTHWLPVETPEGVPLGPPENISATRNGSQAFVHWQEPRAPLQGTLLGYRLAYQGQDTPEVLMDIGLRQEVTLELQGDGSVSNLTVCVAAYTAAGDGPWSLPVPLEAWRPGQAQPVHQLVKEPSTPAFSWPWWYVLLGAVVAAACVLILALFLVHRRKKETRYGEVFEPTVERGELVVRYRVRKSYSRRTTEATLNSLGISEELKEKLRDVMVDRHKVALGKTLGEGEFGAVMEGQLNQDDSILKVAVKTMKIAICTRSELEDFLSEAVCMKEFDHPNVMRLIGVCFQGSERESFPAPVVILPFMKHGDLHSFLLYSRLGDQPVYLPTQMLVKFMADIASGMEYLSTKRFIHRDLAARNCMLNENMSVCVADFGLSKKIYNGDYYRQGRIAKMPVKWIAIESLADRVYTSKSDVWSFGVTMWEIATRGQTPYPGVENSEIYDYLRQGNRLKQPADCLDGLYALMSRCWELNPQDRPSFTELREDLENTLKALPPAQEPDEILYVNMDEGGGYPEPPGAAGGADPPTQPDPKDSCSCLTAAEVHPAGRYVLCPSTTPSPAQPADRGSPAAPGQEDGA
readout kind: IC50

# IC50 lookup, item CCN1C(=O)N(c2c(F)c(OC)cc(OC)c2F)Cc2cnc3[nH]c(CN4CCOCC4)cc3c21 [INCB054828, pemigatinib] > 10 µM

====

- experimental system: CDK2 (Homo sapiens)
pIC50: −log10 of the molar value.
readout kind: pIC50

# pIC50 lookup, item CCN1C(=O)N(c2c(F)c(OC)cc(OC)c2F)Cc2cnc3[nH]c(CN4CCOCC4)cc3c21 [INCB054828, pemigatinib] < 5.00

====

- experimental system: UniProt P06239
- Sequence (P06239 whole entry, species assumed): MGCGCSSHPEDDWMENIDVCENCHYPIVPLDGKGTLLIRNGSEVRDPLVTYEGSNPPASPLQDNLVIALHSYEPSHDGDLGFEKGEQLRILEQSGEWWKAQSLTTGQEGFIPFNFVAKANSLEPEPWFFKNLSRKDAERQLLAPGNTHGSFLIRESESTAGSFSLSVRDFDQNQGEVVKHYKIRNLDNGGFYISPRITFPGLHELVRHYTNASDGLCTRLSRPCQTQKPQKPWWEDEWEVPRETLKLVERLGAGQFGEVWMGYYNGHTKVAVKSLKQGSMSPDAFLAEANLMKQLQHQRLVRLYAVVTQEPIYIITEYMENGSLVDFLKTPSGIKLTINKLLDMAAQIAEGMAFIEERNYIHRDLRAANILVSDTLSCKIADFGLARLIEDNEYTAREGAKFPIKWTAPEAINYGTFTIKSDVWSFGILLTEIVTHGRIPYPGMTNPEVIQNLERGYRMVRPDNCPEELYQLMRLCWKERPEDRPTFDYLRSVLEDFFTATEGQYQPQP
readout kind: IC50

Find IC50 (UniProt P06239) for the entry CCN1C(=O)N(c2c(F)c(OC)cc(OC)c2F)Cc2cnc3[nH]c(CN4CCOCC4)cc3c21 [INCB054828, pemigatinib] > 10 µM

====

- experimental system: ERBB4 (Homo sapiens)
- Sequence (Q15303 26-1308, species assumed): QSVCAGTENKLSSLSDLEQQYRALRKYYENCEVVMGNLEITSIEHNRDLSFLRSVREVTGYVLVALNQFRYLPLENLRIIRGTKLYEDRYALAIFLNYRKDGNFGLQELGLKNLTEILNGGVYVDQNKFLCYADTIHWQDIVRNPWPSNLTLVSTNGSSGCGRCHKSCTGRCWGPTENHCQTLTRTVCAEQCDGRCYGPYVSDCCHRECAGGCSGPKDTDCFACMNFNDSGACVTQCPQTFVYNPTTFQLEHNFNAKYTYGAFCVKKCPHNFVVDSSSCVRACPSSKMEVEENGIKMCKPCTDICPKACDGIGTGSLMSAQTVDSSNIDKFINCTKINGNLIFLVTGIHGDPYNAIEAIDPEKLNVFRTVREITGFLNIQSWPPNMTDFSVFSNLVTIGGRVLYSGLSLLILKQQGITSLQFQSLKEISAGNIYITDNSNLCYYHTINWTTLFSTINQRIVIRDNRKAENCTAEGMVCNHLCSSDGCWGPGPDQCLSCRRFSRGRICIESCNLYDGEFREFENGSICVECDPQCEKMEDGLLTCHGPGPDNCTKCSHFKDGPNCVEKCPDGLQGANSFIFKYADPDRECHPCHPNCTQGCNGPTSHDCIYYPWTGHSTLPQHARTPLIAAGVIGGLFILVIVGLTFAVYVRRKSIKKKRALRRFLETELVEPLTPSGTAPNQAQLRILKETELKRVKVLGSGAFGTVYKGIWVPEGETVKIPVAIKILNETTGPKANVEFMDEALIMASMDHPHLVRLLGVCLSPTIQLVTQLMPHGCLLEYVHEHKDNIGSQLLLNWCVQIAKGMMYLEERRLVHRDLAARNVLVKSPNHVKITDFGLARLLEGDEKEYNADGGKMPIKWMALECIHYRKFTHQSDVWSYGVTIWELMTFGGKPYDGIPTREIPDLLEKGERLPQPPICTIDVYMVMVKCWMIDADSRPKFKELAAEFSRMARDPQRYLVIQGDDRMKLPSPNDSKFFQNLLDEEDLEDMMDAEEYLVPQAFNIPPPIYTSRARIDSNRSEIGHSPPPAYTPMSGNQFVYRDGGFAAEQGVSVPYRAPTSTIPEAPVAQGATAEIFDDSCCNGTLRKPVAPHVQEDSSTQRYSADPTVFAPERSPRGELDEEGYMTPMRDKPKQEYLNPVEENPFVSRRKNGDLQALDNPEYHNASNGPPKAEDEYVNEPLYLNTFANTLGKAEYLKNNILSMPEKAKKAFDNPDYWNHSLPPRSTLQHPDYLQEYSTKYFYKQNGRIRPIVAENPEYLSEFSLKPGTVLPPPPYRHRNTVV
readout kind: IC50

Find IC50 (ERBB4 (Homo sapiens)) for the entry CCN1C(=O)N(c2c(F)c(OC)cc(OC)c2F)Cc2cnc3[nH]c(CN4CCOCC4)cc3c21 > 10 µM

====

- experimental system: UniProt Q9P1W9
- Sequence (Q9P1W9 whole entry, species assumed): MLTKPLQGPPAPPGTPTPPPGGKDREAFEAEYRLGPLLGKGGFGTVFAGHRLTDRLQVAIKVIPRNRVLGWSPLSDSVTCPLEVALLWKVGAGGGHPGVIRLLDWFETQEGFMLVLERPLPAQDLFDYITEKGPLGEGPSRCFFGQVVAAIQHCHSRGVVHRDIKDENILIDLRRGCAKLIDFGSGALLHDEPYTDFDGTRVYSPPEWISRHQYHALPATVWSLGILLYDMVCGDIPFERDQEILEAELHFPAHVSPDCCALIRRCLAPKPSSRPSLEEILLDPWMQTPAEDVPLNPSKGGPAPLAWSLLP
readout kind: IC50

Find IC50 (UniProt Q9P1W9) for the entry CCN1C(=O)N(c2c(F)c(OC)cc(OC)c2F)Cc2cnc3[nH]c(CN4CCOCC4)cc3c21 [INCB054828, pemigatinib] > 10 µM

====

- experimental system: CYP2C9 (Homo sapiens)
- Sequence (P11712 whole entry): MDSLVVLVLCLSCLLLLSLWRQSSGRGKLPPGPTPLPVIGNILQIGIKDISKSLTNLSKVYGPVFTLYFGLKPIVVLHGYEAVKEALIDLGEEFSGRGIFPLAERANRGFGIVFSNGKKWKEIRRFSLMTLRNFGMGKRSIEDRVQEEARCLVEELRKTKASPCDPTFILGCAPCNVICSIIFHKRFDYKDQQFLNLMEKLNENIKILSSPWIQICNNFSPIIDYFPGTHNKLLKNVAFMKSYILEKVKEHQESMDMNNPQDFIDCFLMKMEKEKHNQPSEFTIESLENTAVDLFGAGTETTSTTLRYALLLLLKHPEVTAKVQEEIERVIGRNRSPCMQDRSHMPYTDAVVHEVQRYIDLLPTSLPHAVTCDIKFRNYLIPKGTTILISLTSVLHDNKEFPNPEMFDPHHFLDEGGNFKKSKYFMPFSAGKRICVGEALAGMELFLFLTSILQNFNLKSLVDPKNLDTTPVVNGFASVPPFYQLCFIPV
pIC50: −log10 of the molar value.
readout kind: pIC50

Find pIC50 (CYP2C9 (Homo sapiens)) for the entry CCN1C(=O)N(c2c(F)c(OC)cc(OC)c2F)Cc2cnc3[nH]c(CN4CCOCC4)cc3c21 [INCB054828, pemigatinib] < 4.60
